# TARGET_OF_ASSAY: human KOR (Homo sapiens, UniProt P41145)
# Sequence (P41145 whole entry): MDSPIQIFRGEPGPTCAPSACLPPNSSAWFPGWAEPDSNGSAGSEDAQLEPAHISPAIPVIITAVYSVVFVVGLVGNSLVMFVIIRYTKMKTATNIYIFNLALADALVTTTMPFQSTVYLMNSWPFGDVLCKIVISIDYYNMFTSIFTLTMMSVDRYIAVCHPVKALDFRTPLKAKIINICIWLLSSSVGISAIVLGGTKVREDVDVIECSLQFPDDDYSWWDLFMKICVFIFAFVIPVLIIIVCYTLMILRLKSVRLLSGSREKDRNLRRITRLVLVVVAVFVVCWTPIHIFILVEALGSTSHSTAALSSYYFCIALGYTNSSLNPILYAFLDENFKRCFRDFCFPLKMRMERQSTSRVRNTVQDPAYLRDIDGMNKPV
# Sequence (P63096 2-354 partner limits assumed): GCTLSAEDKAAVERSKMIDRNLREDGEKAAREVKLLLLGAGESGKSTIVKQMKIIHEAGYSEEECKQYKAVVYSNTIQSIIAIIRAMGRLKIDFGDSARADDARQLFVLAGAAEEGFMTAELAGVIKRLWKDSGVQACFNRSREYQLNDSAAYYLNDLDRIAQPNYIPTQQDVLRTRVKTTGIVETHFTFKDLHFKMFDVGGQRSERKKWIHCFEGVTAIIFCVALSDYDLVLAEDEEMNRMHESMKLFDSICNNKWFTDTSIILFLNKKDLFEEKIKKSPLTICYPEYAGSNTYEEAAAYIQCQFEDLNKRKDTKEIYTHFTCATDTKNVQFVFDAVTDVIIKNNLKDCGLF
# Sequence (P62873 2-340 partner limits assumed): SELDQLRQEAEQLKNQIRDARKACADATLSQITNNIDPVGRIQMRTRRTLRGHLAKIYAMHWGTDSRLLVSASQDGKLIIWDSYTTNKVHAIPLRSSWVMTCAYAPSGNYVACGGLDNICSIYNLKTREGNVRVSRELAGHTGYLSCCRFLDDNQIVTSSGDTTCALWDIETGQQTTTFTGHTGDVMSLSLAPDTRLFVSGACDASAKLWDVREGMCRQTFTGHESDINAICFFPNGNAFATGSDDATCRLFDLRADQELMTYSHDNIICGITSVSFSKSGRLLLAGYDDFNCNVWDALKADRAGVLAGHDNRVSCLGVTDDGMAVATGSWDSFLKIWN
# Sequence (P59768 2-68 partner limits assumed): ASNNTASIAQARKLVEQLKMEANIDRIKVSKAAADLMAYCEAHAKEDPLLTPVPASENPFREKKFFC
# TEST_PROTOCOL: biochemical
TEST_READOUT: EC50 (nM)
Quick reminder: number only, in nM, skip the unit.

Data request: So what does the record say about EC50 for "Oc1ccc2c(c1)[C@@]13CCCC[C@@]1(O)[C@@H](C2)N(CC1CCC1)CC3" ?
Data returned: 2.8

* * *

# TARGET_OF_ASSAY: UniProtKB P41145
TEST_READOUT: Kd (nM)
Quick reminder: number only, in nM, skip the unit.

Data request: So what does the record say about Kd for Oc1ccc2c(c1)[C@@]13CCCC[C@@]1(O)[C@@H](C2)N(CC1CCC1)CC3 [butorphanol] ?
Data returned: 0.1

From: paper PMC7668422
